# Assay Details: Inhibition of human alpha-galactosidase isolated from human fibroblasts incubated for 30 mins using […] analysis
pIC50: −log10 of the molar value.
Let's look at some molecules and their measured pIC50.

These solved cases illustrate the format of a correct answer.
# pIC50 lookup, item `CCCCCCCCN[C@@H]1C=C[C@H](O)[C@H](O)[C@H]1O.Cl` < 3.00

May I ask what pIC50 has been recorded for `Cl.O[C@@H]1[C@@H](O)[C@H](NCCc2ccccc2)C=C[C@@H]1O` ? < 3.00

More entries:
Query (molecule): `CCCCCCCCN[C@@H]1C=C(C)[C@H](O)[C@H](O)[C@H]1O` ; field requested: pIC50 < 3.00

# input molecule: `CCCCCCN[C@@H]1C=C[C@H](O)[C@H](O)[C@H]1O.Cl` ; wanted: its pIC50 < 3.00

Requested field: pIC50. Item: `CCCCCCCCCCN[C@@H]1C=C[C@H](O)[C@H](O)[C@H]1O.Cl` < 3.00

Would you mind telling me what pIC50 value was observed for `CC(C)CN[C@@H]1C=C[C@H](O)[C@H](O)[C@H]1O.Cl` ? < 3.00

# get_value(readout='pIC50', item= `CCC(CC)N[C@@H]1C=C[C@H](O)[C@H](O)[C@H]1O.Cl` ) < 3.00

So what's the measured pIC50 for this one? `Cl.O[C@@H]1[C@@H](O)[C@H](NC2CCCCC2)C=C[C@@H]1O` < 3.00

// query pIC50 value for entry `CCCCN[C@@H]1C=C[C@H](O)[C@H](O)[C@H]1O.Cl` < 3.00

Name the reported pIC50 value associated with the molecule `CCCCCCCCN[C@@H]1C=C(CO)[C@H](O)[C@H](O)[C@H]1O.Cl` < 3.00
